- procedure text: Preclinical PET biodistribution of [^18F]FPCA‐F9 solution after tail‐vein injection
- Format: in vivo, C3H mice
- condition notes: C3H, mouse, bone, iv, 13 MBq, total radioactivity, i.v. tail vein, 1 hour postinjection, n = 4, read-out: Bone accumulation
Where a SMILES comes first, the peptide text is derived from it. The star is where a group is joined. X1 = O=C(CO/N=C/c1cccnc1F)*
result type: SUV at 1 h (SUV)
Give the value in SUV but do not write SUV after it.

q: Give the measured SUV at 1 h for NCCCC[C@H](NC(=O)[C@H](CCCCN)NC(=O)[C@H](Cc1ccccc1)NC(=O)[C@H](CCC(=O)O)NC(=O)[C@H](Cc1ccccc1)NC(=O)[C@H](CCCCN)NC(=O)[C@H](Cc1ccccc1)NC(=O)[C@H](CCC(=O)O)NC(=O)[C@H](Cc1ccccc1)NC(=O)CO/N=C/c1cccnc1F)C(=O)O [[^18F]FPCA‐F9] (X1-FEFKFEFKK-OH)
a: 7.8

====

- procedure text: Preclinical PET biodistribution of [^18F]FPCA‐F9 solution after tail‐vein injection
- Format: in vivo, C3H mice
- condition notes: C3H, mouse, liver, iv, 13 MBq, total radioactivity, i.v. tail vein, 5 minutes postinjection, n = 4, read-out: Liver uptake
Where a SMILES comes first, the peptide text is derived from it. The star is where a group is joined. X1 = O=C(CO/N=C/c1cccnc1F)*
result type: SUV at 5 min

q: Give the measured SUV at 5 min for NCCCC[C@H](NC(=O)[C@H](CCCCN)NC(=O)[C@H](Cc1ccccc1)NC(=O)[C@H](CCC(=O)O)NC(=O)[C@H](Cc1ccccc1)NC(=O)[C@H](CCCCN)NC(=O)[C@H](Cc1ccccc1)NC(=O)[C@H](CCC(=O)O)NC(=O)[C@H](Cc1ccccc1)NC(=O)CO/N=C/c1cccnc1F)C(=O)O [[^18F]FPCA‐F9] (X1-FEFKFEFKK-OH)
a: 1.4 SUV
